experiment: protein stability index of a GFP-peptide fusion (GPS, HEK-293T) (PSI 1-6); higher = more stable;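 also: 24-mer peptide tiles fused after GFP, lentivirally expressed, FACS-sorted into six equal bins by GFP/DsRed ratio, decoded by Illumina sequencing, PSI is the read-weighted mean bin number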
condition summary: treatment: DMSO; c terminus: a fixed tail appended
Record condition met whenever protein stability index is at 3 or higher; record condition not met when lower.

Reported protein stability index reaches at least 3 for ERPGAEGAPLLPPPLPPPSPPGSG [ACBD3] ?
condition met

Reported protein stability index reaches at least 3 for ILVYDIANRWSFDGIDRWIKEIDE [RAB40B] ?
condition not met

Reported protein stability index reaches at least 3 for GPSRPAEKPPRPEAKSAQPADGWK [GCH1] ?
condition met

Reported protein stability index reaches at least 3 for YVGNLPPDIRTKDIEDVFYKYGAI [SRSF1] ?
condition not met

Reported protein stability index reaches at least 3 for EDGVWYSVAPMNVRRGLAGATTLG [KLHL12] ?
condition met

Reported protein stability index reaches at least 3 for PIDPAAWVSHTAAMTGTFPAYGMS [DVL3] ?
condition not met

FYI, the data here is from the supplement of paper PMC10567573.
